A collection of compounds and their measured pest or weed control at 20 g/ha
# System: VIOTR
# Test name: Pre-emergence herbicidal action against VIOTR
# Type: in vivo, Viola tricolor
# Measurement conditions: Viola tricolor, 504 h, dosage 20 g/ha
Property measured: pest or weed control at 20 g/ha

CCNC(=O)c1c(C(F)F)ccc(C(=O)Nc2nnnn2C)c1CC : 100%
CCc1c(C(=O)Nc2nnnn2C)ccc(C(F)F)c1C(=O)NC : 100%
CCn1nnnc1NC(=O)c1ccc(Br)c(C(=O)NC2CC2)c1Br : 90%
CCNC(=O)c1c(C(F)(F)F)ccc(C(=O)Nc2nnnn2CC)c1C1CC1 : 100%
CCNC(=O)c1c(C(F)F)ccc(C(=O)Nc2nnnn2C)c1SC : 100%
CCCNC(=O)c1c(C(F)(F)F)ccc(C(=O)Nc2nnnn2C)c1Cl : 90%
CCn1nnnc1NC(=O)c1ccc(C(F)(F)F)c(C(=O)NC)c1Cl : 100%
CCc1c(C(=O)Nc2nnnn2C)ccc(C(F)F)c1C(=O)NC1CC1 : 100%
CCn1nnnc1NC(=O)c1ccc(C(F)(F)F)c(C(=O)NC2CC2)c1C1CC1 : 100%
